tested-target: pooled human IgG
measure: Enzyme Activity Endpoint Assay (purified): Fab'2 (ng/µL)

protein	measured-value
PRT-156 (protein) MANQEIRYSEVTPYHVTSVWTKGVTPPTDFTQGEDVFHAPYKANQGWYDITKTFNGKDDLLCGAATAGNMLHWWFDQNKDQIKRYLEEHPEKQKINFNGEQMFDVKEAIDTKNHQLDSKLFEYFKEKAFPYLSTKHLGVFPDHVIDMFINGYRLSLTNHGPTPVKEGSKDPRGGIFDAVFTRGDQSKLLTSRHDFKEKNLKEISDLIKKELTEGKALGLSHTYANVRINHVINLWGADFDSNGNLKAIYVTDSDSNASIGMKKYFVGVNSAGKVAISAKEIKEDNIGAQVLGLFTLSTGQDSWNQTN	772
PRT-126 (protein) MRNATEAYAKEVPHQITSVWTKGVTPLTPEQFRYNNEDVIHAPYLANQGWYDITKTFDGKDNLLCGAATAGNMLHWWFDQNKTEIEAYLSKHPEKQKIIFNNQELFDLKAAIDTKDSQTNSQLFNYFRDKAFPNLSARQLGVMPDLVLDMFINGYYLNVFKTQSTDVNRPYQDKDKRGGIFDAVFTRGDQTTLLTARHDLKNKGLNDISDLIKQELTEGKALALSHTYANVSISHVINLWGADFNAEGNLEAIYVTDSDSNASIGMKKYFVGVNAAGHVAISAKKIEGENIGAQVLGLFTLSSGKDIWQKLS	472
PRT-257 (protein) MVTSVWTKGVTPPTNFTYGEDVLHAPYVANQGWYDITKLFNGKDDLLCGAATAGNMLHWWFDQNKEQIENYLKKHPEKQKINFNGEQMFDVKEAIDTKDSQLDSKLFDYFKEKAFPYLSTKHLGVFPDHVIDMFINGYRLSLTNHGPTPVKRGSKDPRGGIFDAVFTRGDQSKLLTNRHDFKEKTLKEISDLIKQELTEGKALGISHTYANVRINHVINLWGADFDAEGNLEAIYVTDSDSNPSIGMKKYFVGVNSSGKVAISAKEIEEDNIGAQVLGLFTLSTGQDIWNQTN	1050
PRT-132 (protein) MRNATEAYAKEVPKQITSVWTKGVTPPTPEQFRYNNEDVIHAPYLAHQGWYDITKAFDGKDNLLCGAATAGNMLHWWFDQNKTEIEAYLSKHPEKQKIIFNNQELFDLKAAIDTKDSQTNSQLFNYFRDKAFPNLSARQLGVMPDLVLDMFINGYYLNVFKTQSTDVNRPYQDKDKRGGIFDAVFTRGDQTTLLTARHDLKNKTLNDISTIIKQELTEGRALALSHTYANVSISHVINLWGADFNAEGNLEAIYVTDSDANASIGMKKYFVGINAHGHVAISAKKIEGENIGAQVLGLFTLSSGKDIWQKLS	697
